# System: NOMO1
# method-description: cell viability relative to DMSO control; higher = less cytotoxic
# run-parameters: RPMI 5 mM glucose + 10% FBS; 48 h; 0.569 µM
Please respond with reported cell viability for every item in the list.
Hi! Could you send only the number? It should be in %, unit omitted.

Query: Quick one: cell viability for CN1c2ccccc2C(=O)N2CCc3c([nH]c4ccccc34)C21 (centres undefined) ?
Response: 123

Query: Quick one: cell viability for `O=C(O)CCn1c2c(c3ccccc31)C[C@H](N[S+](=O)([O-])c1ccc(F)cc1)CC2` ?
Response: 99.2

Query: Quick one: cell viability for COc1ccc(C2Sc3ccccc3N(CCN(C)C)C(=O)C2OC(C)=O)cc1 (centres undefined) ?
Response: 99

Query: Quick one: cell viability for `ClC1=CC\2=C(NC(=O)\C(=C2N[C@@H]3CN4CCC3CC4)C5=NC6=C([NH]5)C=CC=C6)C=C1` ?
Response: 23.4

Query: Quick one: cell viability for `NC(=O)c1cccc2nc(-c3ccc([C@H]4CCCN4)cc3F)[nH]c12` ?
Response: 117

Query: Quick one: cell viability for `C[C@]12CC[C@H]3[C@@H](C\C=C/4C[C@@H](O)CC[C@]34C)[C@@H]1CCC2=O` ?
Response: 121

Query: Quick one: cell viability for `CN1\N=C(N)/C2=C[N]([C@@H]3O[C@H](CO[P](O)(O)=O)[C@@H](O)[C@H]3O)C4=C2C1=NC=N4` ?
Response: 93.7

Query: Quick one: cell viability for `c1ccc(CNc2nc(N3CCOc4ccccc43)nc3c2CCCC3)cc1` ?
Response: 106

Query: Quick one: cell viability for `C[C@]12CC[C@H]3[C@@H](CCC/4=C/C(=O)CC[C@]34C)[C@@H]1CC[C@@H]2O` ?
Response: 129

---

# System: SEM cells
# method-description: cell viability relative to DMSO control; higher = less cytotoxic
# run-parameters: HPLM + 10% dialyzed FBS; 48 h; 5.12 µM
Please respond with reported cell viability for every item in the list.
Hi! Could you send only the number? It should be in %, unit omitted.

Query: Quick one: cell viability for `COC1=CC=CC(=C1N)\C2=C\C(=O)C3=C(O2)C=CC=C3` ?
Response: 148

Query: Quick one: cell viability for `COc1ccc2c(c1)c(CC(=O)OCC(=O)O)c(C)n2C(=O)c1ccc(Cl)cc1` ?
Response: 113

Query: Quick one: cell viability for `CC(C)N(CC[C@H](c1ccccc1)c1cc(CO)ccc1O)C(C)C` ?
Response: 151

Query: Quick one: cell viability for `CN(C)c1nc(Cc2ccc(NC(=O)c3ccc4ccccc4c3)cc2)nc(Cl)c1CC(=O)O` ?
Response: 105

Query: Quick one: cell viability for `COc1cc2c(Nc3ccc(Br)cc3F)ncnc2cc1OCC1CCN(C)CC1` ?
Response: 79.4

Query: Quick one: cell viability for `CCN(CC)CCCCNc1ncc2c(n1)N(C)C(=O)N(c1c(Cl)c(OC)cc(OC)c1Cl)C2` ?
Response: 99.2

Query: Quick one: cell viability for `CC(C)c1cnn2c(NCc3ccccc3)cc(NCCCCCCN)nc12` ?
Response: 118

Query: Quick one: cell viability for `O=C(O)CCn1c2c(c3ccccc31)C[C@H](N[S+](=O)([O-])c1ccc(F)cc1)CC2` ?
Response: 118
